test.details: Components of the Cytosolic LPS Sensing Pathway: Gene Identification via Genome-wide siRNA Screen
measurement.conditions: RAW264.7 macrophages, IL-1a HTRF, actives lie on both sides, screened at 100 nM (by protocol), cells primed 5 h with Pam3CSK4 first
Experimental: Non-canonical inflammasome activation by cytosolic LPS is a critical component of the host response to Gram-negative bacterial infection, however we lack a comprehensive understanding of the cellular processes that control this pathway. […] Lipofectamine RNAiMAX Transfection Reagent ([…]; Invitrogen) was added in […] serum-free, antibiotic-free media to plate wells using a Thermo Scientific Matrix WellMate and Microplate Stacker. […] The plates were read on an EnVision plate reader (PerkinElmer). […]
Out of some 53,000 sequences screened, about 3,700 (7%) were called active.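 How the source made its calls: active means gene knockdowns whose robust z-score for IL-1 alpha signal is at least 2 or at most -2, so actives lie on both sides; inactive means the rest.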 Many of the other results were omitted from the sample, so actives are more common in it than they were.
Select the matching outcome among active, inactive

biosequence="CGAGGGAAUGCACUACAACTT against Chpf" classification=active
biosequence="GCCACGGCCAGUAAAACAUTT against Cdcp1" classification=inactive
biosequence="GGUCAAUUCCCAUACCCUGTT against Tfr2" classification=inactive
biosequence="UUUGCAUGUACAGAAUGCUTT against Olfr312" classification=inactive
biosequence="CCCAAGAUCUAAGAGUAUUTT against Rin3" classification=inactive
biosequence="GGUAUGCUCUCUGUUGACUTT against Olfr922" classification=inactive
biosequence="GCAGUAUGAGGUAAAUUAUTT against Amer3" classification=inactive
biosequence="GGUAGUUGUGCCAGAAAAATT against Garre1" classification=inactive

Request: Outcome logged for GGUGGUUGAAGAAAUGGCUTT against Timm8a1 in this assay:
Response: inactive

Request: Then CCUUGCCUUUACUACCAGUTT against Olfr15 ?
Response: inactive

Request: Then GGAGUCUGCUCUCAUUCUUTT against Slc30a1 ?
Response: inactive

Request: Then GGAUCGAAUCUUUACCUAUTT against Col9a1 ?
Response: inactive

====

Entries and their z-score values follow.
test.details: Components of the Cytosolic LPS Sensing Pathway: Gene Identification via Genome-wide siRNA Screen
measurement.conditions: RAW264.7 macrophages, IL-1a HTRF, actives lie on both sides, screened at 100 nM (by protocol), cells primed 5 h with Pam3CSK4 first
Hit rate of the full screen: of about 53,000 sequences, about 3,700 (7%) were called active. The entries come from a sample that favours actives as a whole.
A bare number is all that is needed in reply.

biosequence="GGACAAAUGACUGGUACCCTT against Gorasp2" meas_value=-0.314

Request: Record request: z-score value, item GGAUGCAGAUGUACAACUCTT against Slc25a28
Response: 2.17

Request: Then GACAGAAAUAUAGACUCGATT against Ppp1r42 ?
Response: -2.45

Request: Then GCUCACAGCAGCAUUUUACTT against 1700034H15Rik ?
Response: -2.48

Request: Then GAGUAUCAUUUCCUGUUUUTT against Olfr389 ?
Response: -0.395

Request: Then GCGCAGAAGAGGCUAUUAUTT against Asprv1 ?
Response: -0.125

Request: Then GCAUAGCAGGAAGGCCUUGTT against Htr6 ?
Response: 0.183

Request: Then GGUCCUUCAACGGAAGGGATT against Tagap ?
Response: 0.196

Request: Then GCACAAUGGAAGGUGUCCUTT against Tas2r114 ?
Response: 0.597

Request: Then CCACAUGAACAAUUUGGGCTT against Rpl9 ?
Response: 0.0288

Request: Then CGAAAUUGCUGACUCAGAATT against Arl6ip6 ?
Response: 0.549

Request: Then GGAUUUGAGCGAUAUGAGCTT against Tex12 ?
Response: -3.29

====

test.details: Components of the Cytosolic LPS Sensing Pathway: Gene Identification via Genome-wide siRNA Screen;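 further: robust z of the log signal after scaling to non-targeting control siRNA wells of the plate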
measurement.conditions: RAW264.7 macrophages, IL-1a HTRF, actives lie on both sides, screened at 100 nM (by protocol), cells primed 5 h with Pam3CSK4 first
Hit rate of the full screen: of about 53,000 sequences, about 3,700 (7%) were called active. The sample as a whole holds a higher share of actives than the screen did.
Cut-off 0.3 on z-score, inclusive. At or above means TRUE; below means FALSE.

biosequence="GGAGACUGUCAUGGCUGUGTT against Olfr397" classification=FALSE
biosequence="CCUUUGAAUCCCAGGUUCATT against Lmo1" classification=TRUE
biosequence="GCUUACCUUUGGAUUCAAATT against Cd68" classification=FALSE
biosequence="GCAGAAUGUCACUAAGUGCTT against Sdcbp2" classification=FALSE

Now turn to the next sequence.
Request: Confirm if z-score reported for the sequence GGAGGUUACAUAACAGGUGTT against Itsn2 is 0.3 or above.
Response: TRUE

====

test.details: Components of the Cytosolic LPS Sensing Pathway: Gene Identification via Genome-wide siRNA Screen;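 further: robust z of the log signal after scaling to non-targeting control siRNA wells of the plate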
measurement.conditions: RAW264.7 macrophages, IL-1a HTRF, actives lie on both sides, screened at 100 nM (by protocol), cells primed 5 h with Pam3CSK4 first
In all, about 53,000 sequences went through this assay and about 3,700 (7%) were called active.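 Rule for the calls: active = gene knockdowns whose robust z-score for IL-1 alpha signal is at least 2 or at most -2, so actives lie on both sides; inactive = the rest.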 Only a selection was taken, and actives are over-represented in it overall.
Select the matching outcome among active, inactive

biosequence="CCACUCAUUGUUCAUGGAATT against Olfr1490" classification=inactive

Request: Outcome logged for GGGACAAUACCAAUUUCUCTT against Car15 in this assay:
Response: inactive

Request: Then GGAAGCUGAUGGCUAUGACTT against Arc ?
Response: inactive

====

Entries and their z-score values follow.
test.details: Components of the Cytosolic LPS Sensing Pathway: Gene Identification via Genome-wide siRNA Screen;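 further: robust z of the log signal after scaling to non-targeting control siRNA wells of the plate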
measurement.conditions: RAW264.7 macrophages, IL-1a HTRF, actives lie on both sides, screened at 100 nM (by protocol), cells primed 5 h with Pam3CSK4 first
About 3,700 (7%) of roughly 53,000 sequences were called active. Many of the other results were omitted from the sample, so actives are more common in it than they were.
A bare number is all that is needed in reply.

biosequence="CGCUACGUCCAGUAUCACCTT against Tmem192" readout_name=z-score meas_value=-0.471
biosequence="GCUACUAAGCACCUAGAGATT against Fxr2" readout_name=z-score meas_value=-0.932
biosequence="CCAUUACAUCCAUUUGAUUTT against Cfap206" readout_name=z-score meas_value=0.328
biosequence="CCUUUGGACGCAACCAGUUTT against Ugt1a6b" readout_name=z-score meas_value=2.04

Request: Record request: z-score value, item CCAUAGACUAUUAUCCUUATT against Uhrf1bp1l
Response: -0.282

Request: Then GGAGAAAAUUGUCAAGAAGTT against Ift122 ?
Response: -0.824

Request: Then GGGCUGGAAUCUAGGAAGUTT against Ccr10 ?
Response: 2.68

Request: Then GCAUAGUCUUGUUAACCAGTT against Poldip3 ?
Response: -0.689

Request: Then GGUUGUAGGAAGAAGAGAATT against Olfr957 ?
Response: -0.798

Request: Then GACACCUACUUCAUUGGCCTT against Olfr1245 ?
Response: -1.23

Request: Then GGAGCUUCGAAAAAAGUUGTT against Pex16 ?
Response: 0.329

Request: Then CCAUCAUGACGGUUCCCUATT against Mrgpra5 ?
Response: -1.43

Request: Then GGUUACGAAGAUUAAUGUGTT against Crk ?
Response: 1.27

Request: Then GCCGAGCUCAUCAUCAUGATT against Prss40 ?
Response: 2.5

Request: Then GGACUGAGUCAGAUUUACATT against Foxn2 ?
Response: -0.622

====

Entries and their z-score values follow.
test.details: Components of the Cytosolic LPS Sensing Pathway: Gene Identification via Genome-wide siRNA Screen;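 further: robust z of the log signal after scaling to non-targeting control siRNA wells of the plate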
measurement.conditions: RAW264.7 macrophages, IL-1a HTRF, actives lie on both sides, screened at 100 nM (by protocol), cells primed 5 h with Pam3CSK4 first
Hit rate of the full screen: of about 53,000 sequences, about 3,700 (7%) were called active. This excerpt belongs to a sample that is enriched for actives.
A bare number is all that is needed in reply.

# count of solved cases: 4
biosequence="GGAUUCUCCUUUACCUUUGTT against B930095G15Rik" meas_value=0.0151
biosequence="GGAACAGCAGCAGAGUGAATT against Gkap1" meas_value=-1.09
biosequence="GGACAUCUGUGUUAAAUUUTT against Npy1r" meas_value=-0.47
biosequence="GCACUCAGCUAGGUGAAGATT against Hnrnpul1" meas_value=-0.186

Request: Record request: z-score value, item GGCUUUUCGUUGUAAAUCATT against 9930111J21Rik2
Response: 0.735

Request: Then GCGGGAUUGGUCAUUCCACTT against Mrpl45 ?
Response: 2.97

Request: Then GGCUGGAGCCUCAAAUAUCTT against Rapsn ?
Response: -0.574

This collection of values is drawn from PubChem BioAssay AID1508600.
